- targetSystem: T1, extracellular domain of human BCMA (human, UniProt Q02223 1-54)
- T1 construct: amine-linked to Octet AR2G tips; also called hsBCMA; BCMA (human)
- T1 sequence: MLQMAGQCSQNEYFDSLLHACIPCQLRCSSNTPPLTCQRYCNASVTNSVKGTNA
- test: Octet BLI; Fab 200 nM
parameterMeasured: pKd
Units for pKd: none; it is -log10 of a concentration expressed in mol/L.

Examples with their reported pKd follow.
binder	pKd
AB200-R1H26-R2Vk31 (Fab, V domains shown) VH: QVQLVQSGAEVKKPGSSVKVSCKASGGSFSNYWMHWVRQAPGQGLEWMGATYRIHSDTFYNQKFKGRVTITADKSTSTAYMELSSLRSEDTAVYYCARGAIYHGYDVLDNWGQGTLVTVSS VL: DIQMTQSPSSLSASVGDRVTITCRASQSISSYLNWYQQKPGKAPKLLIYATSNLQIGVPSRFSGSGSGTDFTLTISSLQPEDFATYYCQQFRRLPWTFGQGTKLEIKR	8.96
AB200-R1H26-R2Vk13 (Fab, V domains shown) VH: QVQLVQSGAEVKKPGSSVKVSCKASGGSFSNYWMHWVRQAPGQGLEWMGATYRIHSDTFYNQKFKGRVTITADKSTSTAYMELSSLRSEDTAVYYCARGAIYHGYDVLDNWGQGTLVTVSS VL: DIQMTQSPSSLSASVGDRVTITCRASQSISSYLNWYQQKPGKAPKLLIYAASSLQSGVPSRFSGSGSGTDFTLTISSLQPEDFATYYCQQFRKIPWTFGQGTKLEIKR	8.52
AB200-R1H26-R2Vk35 (Fab, V domains shown) VH: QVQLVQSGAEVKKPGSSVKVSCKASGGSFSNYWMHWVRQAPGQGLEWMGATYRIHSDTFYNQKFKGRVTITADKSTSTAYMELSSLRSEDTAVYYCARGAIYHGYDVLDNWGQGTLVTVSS VL: DIQMTQSPSSLSASVGDRVTITCRASQSISSYINWYQQKPGKAPKLLIYATSNLQSGVPSRFSGSGSGTDFTLTISSLQPEDFATYYCQQYRRIPWTFGQGTKLEIKR	8.75
AB200-R1H26-R2Vk29 (Fab, V domains shown) VH: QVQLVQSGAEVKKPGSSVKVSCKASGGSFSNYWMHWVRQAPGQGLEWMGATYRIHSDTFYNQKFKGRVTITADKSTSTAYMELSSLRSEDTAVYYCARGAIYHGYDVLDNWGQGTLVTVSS VL: DIQMTQSPSSLSASVGDRVTITCRASQSISSYLNWYQQKPGKAPKLLIYATSNLQIGVPSRFSGSGSGTDFTLTISSLQPEDFATYYCQQYRRLPWSFGQGTKLEIKR	8.93

Kindly consider the entry below.
# pKd lookup, item AB200-R1H26-R2Vk5 (Fab, V domains shown) VH: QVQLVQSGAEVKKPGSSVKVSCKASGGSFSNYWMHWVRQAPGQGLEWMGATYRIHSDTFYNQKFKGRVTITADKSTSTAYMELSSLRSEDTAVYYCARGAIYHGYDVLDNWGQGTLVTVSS VL: DIQMTQSPSSLSASVGDRVTITCRASQSISSYLNWYQQKPGKAPKLLIYATSNLQIGVPSRFSGSGSGTDFTLTISSLQPEDFATYYCQQFRKLPWSFGQGTKLEIKR 8.89
